measurement protocol: Human HepG2 cell viability assay in 384 well format
Type: toxicity, cell-based
Set-up: dose 125 nL, time 70.5 hour; concentration not given beside the values
condition: HepG2 cells, read-out: Inhibition
Reported cytotoxicity at 70.5 h values for a set of compounds
recorded endpoint: cytotoxicity at 70.5 h (%)

O=C(O)[C@@H]1CCCN1c1nccc(Nc2ccccc2)n1 = 16
CCc1noc(CN(CC)C(=O)CC2C(=O)NCCN2CC(C)(C)C)n1 (stereo not drawn) = 0.786
COc1cc(C(=O)NC2COc3ccccc3C2)ccc1OCC(N)=O (stereo not drawn) = -9.85
Clc1snnc1CN1CCCC1Cn1cccn1 (stereo not drawn) = -1.24
COc1ccc2cc(C3CN(C(=O)COC(C)C)CCO3)ccc2c1 (stereo not drawn) = -2.81
CN(CCc1cn[nH]c1)C(=O)C1CC(=O)N(Cc2cccnc2)C1 (stereo not drawn) = 34.9
Cn1cnc(S(=O)(=O)NCCCN2CCCCCC2)c1Cl = -6.45
O=C1C[C@@H]2[C@H](CCN2Cc2ccco2)N1c1ccsc1 = 9.07
NC(=O)c1nc(-c2ccc(Cl)cc2Cl)oc1N = -3.66
CCS(=O)(=O)N1Cc2c(Cn3ccnc3)nn(C)c2C1 = -2.09
O=C(Nc1ccc(=O)n(Cc2ccccc2Cl)c1)C1CC1 = -23.5
COc1c(C2CCCN2C(=O)c2ccc(O)nc2)c(C)nn1C (stereo not drawn) = -8.59
O=C(O)CCNC(=O)C1(c2cccc(Br)c2)CCOCC1 = -0.861
CCN(Cc1c(F)cccc1Cl)c1cc(C2CCNCC2)nc(C)n1 = 2.62
O=C(c1cc(Cl)c[nH]1)N1CCN(CCc2ccccn2)CC1 = -16
CCN1CCC(NC(=O)NCC(O)c2ccc(Cl)c(F)c2)CC1 (stereo not drawn) = 6.86
CN(C)CC1COCCN1C(=O)c1ccccc1C(=O)c1ccccc1 (stereo not drawn) = -7.66
CCc1nsc(N2CCOC3(CCCC3)C2)n1 = -3.55
Cc1nocc1C(=O)N1CCOC2(COCCN(C(C)C)C2)C1 (stereo not drawn) = -5.11
Cc1cc(C)n2ncc(CN3CCC(Cn4cc(CO)nn4)CC3)c2n1 = 0.595
Cc1ccn2ncc(C(=O)N3CCCC(n4cccn4)C3)c2n1 (stereo not drawn) = -0.891
CCn1ccnc1CN(C)c1nc(-c2ccc(Cl)cc2)nc2c1CNC2 = -9.22
Cn1cc(CCC(=O)N2C[C@@H]3CC[C@H](C2)N(Cc2ccccn2)C3)cn1 = -14
O=C1CC(NS(=O)(=O)c2ccc(Br)cc2)CN1 (stereo not drawn) = -4.25
CN(C)C(=O)c1cn[nH]c1C1(C)CCCN(Cc2ccccn2)C1 (stereo not drawn) = -1.05
CS(=O)(=O)CCSC1CCN(c2ccccc2F)C1=O (stereo not drawn) = -14.2
CC(C)Sc1nnc(CCNC(=O)OC(C)(C)C)o1 = 26.1
CC(C)(NC(=O)C1CCN(C2CCCCC2)CC1)c1nnc(N)s1 = 1.76
CCn1c2c(ccc1=O)CC(N)CC2 (stereo not drawn) = 15.2
O=c1c2ccccc2nc2n1C(CSc1ccc(Br)cc1)CN2 (stereo not drawn) = 0.264
CC(Cc1ccccc1F)NC(=O)CCc1nc(-c2nnc[nH]2)no1 (stereo not drawn) = -4.06
Cc1cc(C)cc(C(=O)N2CCCN(CC(N)=O)CC2)c1 = 37.8
Cc1cc2nc(C3CCCCC3)c(-c3ccnc(NCCO)n3)cn2n1 = -5.35
Cc1nc(CN2CCc3ncnc(-c4ccsc4)c3CC2)cs1 = -9.47
COc1ccc(CNC(c2cccc(F)c2)c2cnn(C)c2)cc1 (stereo not drawn) = -3.12
COc1ccc(CNC(C)c2cnc3cc(C)nn3c2C)cc1 (stereo not drawn) = -2.4
CN(C)C(=O)COCC1CN(C2CCC2)Cc2ncn(C)c21 (stereo not drawn) = 22.5
CN(C)C(=O)C1CSCN1C(=O)CCc1ccco1 (stereo not drawn) = -8.81
CC(=O)N1N=C(Cc2ccccc2)OC1C(=O)NCC(=O)OC(C)(C)C (stereo not drawn) = -4.37
CN(CC(=O)NC(Cc1ccsc1)c1cccnc1)Cc1cccnc1 (stereo not drawn) = 19.4
O=C1CC2(CCN(c3nncs3)C2)CN1c1ccccc1 (stereo not drawn) = -1.13
Cn1nccc1NC(=O)c1cccc(CN2C[C@H]3CC[C@@H](C2)N3)c1 = -1.03
CNC(=O)CN1CCC(NC(=O)Cc2ccc3c(c2)OCCO3)CC1 = 0.523
Cc1csc(CCCNC(C)CC(=O)Nc2ccc(F)cc2)n1 (stereo not drawn) = 5.43
CC(CS(C)(=O)=O)N(C(=O)CCc1ccc(Cl)s1)C1CC1 (stereo not drawn) = -3.37
Cc1ccc(-n2cccn2)cc1S(=O)(=O)N1C[C@H](C2CC2)[C@@H](N)C1 = 11.6
Cc1cc(C(=O)N2CCN(C)CC2)nn1CC(=O)NCc1cccs1 = -4.64
CC(C)OCCS(=O)(=O)c1nccn1-c1cccc(F)c1 = -9.1

Provenance of the data: ChEMBL document CHEMBL3507680
